subject.of.test: whole RNP complex (viral RNPs) of IAV strain A/PR/8/34 (Influenza A virus, UniProt P03428)
Sequence (P03428 whole entry, looked up, one chain of several): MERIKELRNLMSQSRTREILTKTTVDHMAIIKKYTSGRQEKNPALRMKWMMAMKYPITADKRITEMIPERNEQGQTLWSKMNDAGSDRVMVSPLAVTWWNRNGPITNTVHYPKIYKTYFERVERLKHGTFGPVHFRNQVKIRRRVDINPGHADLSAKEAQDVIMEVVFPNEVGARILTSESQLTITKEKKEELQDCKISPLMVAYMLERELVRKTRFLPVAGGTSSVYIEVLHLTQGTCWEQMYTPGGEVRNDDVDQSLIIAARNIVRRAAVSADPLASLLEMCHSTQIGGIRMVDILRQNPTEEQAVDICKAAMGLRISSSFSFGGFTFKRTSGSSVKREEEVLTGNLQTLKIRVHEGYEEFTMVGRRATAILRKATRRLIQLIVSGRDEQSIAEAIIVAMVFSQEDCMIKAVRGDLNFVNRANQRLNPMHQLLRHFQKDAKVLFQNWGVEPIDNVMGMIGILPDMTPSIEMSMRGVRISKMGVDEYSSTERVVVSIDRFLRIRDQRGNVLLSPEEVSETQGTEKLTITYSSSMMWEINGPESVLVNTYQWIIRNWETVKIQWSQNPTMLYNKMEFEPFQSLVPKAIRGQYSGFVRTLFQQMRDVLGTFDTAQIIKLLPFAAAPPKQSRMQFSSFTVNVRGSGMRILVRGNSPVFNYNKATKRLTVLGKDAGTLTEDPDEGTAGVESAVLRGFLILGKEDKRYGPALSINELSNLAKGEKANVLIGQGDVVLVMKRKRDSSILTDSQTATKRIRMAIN
protocol.text: biochemical
attribute.measured: IC50

Exercise: What measured IC50 is associated with CC(C)[C@H](Nc1nc(-c2ccc3n[nH]c(=O)n3c2)ncc1F)C(=O)O on whole RNP complex (viral RNPs) of IAV strain A/PR/8/34 (Influenza A virus, UniProt P03428)?
Solution: > 33.3 µM

Exercise: State its IC50 on whole RNP complex (viral RNPs) of IAV strain A/PR/8/34 (Influenza A virus, UniProt P03428): CNc1nc(-c2ccc3n[nH]c(=O)n3c2)ncc1F
Solution: > 33.3 µM

Exercise: Please state recorded IC50 (tested on whole RNP complex (viral RNPs) of IAV strain A/PR/8/34 (Influenza A virus, UniProt P03428)) of O=C(O)[C@@H]1CCC[C@H](Nc2nc(-c3ccc4n[nH]c(=O)n4c3)ncc2F)C1
Solution: 14.3 µM

Exercise: Lab request: please report IC50 under test system whole RNP complex (viral RNPs) of IAV strain A/PR/8/34 (Influenza A virus, UniProt P03428) for CC(C)C(C)Nc1nc(-c2ccc3n[nH]c(=O)n3c2)ncc1F (centres unmarked)
Solution: 73.2 µM

Exercise: Identify the measured IC50 of COC(=O)CCCCCNc1nc(-c2ccc3n[nH]c(=O)n3c2)ncc1F for whole RNP complex (viral RNPs) of IAV strain A/PR/8/34 (Influenza A virus, UniProt P03428).
Solution: > 33.3 µM

Exercise: Request: IC50, test system whole RNP complex (viral RNPs) of IAV strain A/PR/8/34 (Influenza A virus, UniProt P03428), entry O=c1[nH]nc2ccc(-c3ncc(F)c(NCC4CC4)n3)cn12
Solution: > 33.3 µM

Exercise: Entry O=C(O)CC(Nc1nc(-c2ccc3n[nH]c(=O)n3c2)ncc1F)C1CC1 (centres unmarked) , system whole RNP complex (viral RNPs) of IAV strain A/PR/8/34 (Influenza A virus, UniProt P03428): what IC50 was measured?
Solution: > 25 µM

Exercise: Give IC50 (whole RNP complex (viral RNPs) of IAV strain A/PR/8/34 (Influenza A virus, UniProt P03428)) of the following compound: O=C(O)CCCCCNc1nc(-c2ccc3n[nH]c(=O)n3c2)ncc1F
Solution: 149 µM

Exercise: Please tell me: IC50 of COC(=O)[C@@H]1CCC[C@H](Nc2nc(-c3ccc4n[nH]c(=O)n4c3)ncc2F)C1 , system whole RNP complex (viral RNPs) of IAV strain A/PR/8/34 (Influenza A virus, UniProt P03428)?
Solution: > 33.3 µM

Exercise: Hello, I am looking for reported IC50 with whole RNP complex (viral RNPs) of IAV strain A/PR/8/34 (Influenza A virus, UniProt P03428) for CC(C)Nc1nc(-c2ccc3n[nH]c(=O)n3c2)ncc1F . Could you help?
Solution: 44.9 µM

Exercise: Could you share what IC50 was measured for CC(C)[C@@H](CC(=O)O)Nc1nc(-c2ccc3n[nH]c(=O)n3c2)ncc1F , tested on whole RNP complex (viral RNPs) of IAV strain A/PR/8/34 (Influenza A virus, UniProt P03428)?
Solution: > 33.3 µM

Where do the numbers come from? From patent US20170081324A1.
